%Inh by entry:
Test system: CSK
Cond: concentration: 1 μM, replicates: in singlicate; n = 1;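 also: KINOMEscan kinase panel screen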
Answer with a number only, understood to be in %.

> print(dat)
                                   molecule  unit.text  result.number
1  O=C(Nc1n[nH]c2nc(-c3ccc(O)cc3)ccc12)C1CC1 [SB-710363]          %              0

Tell me measured %Inh for COc1ccc(Nc2nccc(N3CCC(NC(=O)Nc4cccc(OC)c4)C3)n2)cc1 (stereo not shown) [GSK1379742] please.
0

Note %Inh for the molecule shown: Cn1cc(-c2ccc3c(c2)CCN3C(=O)Cc2cccc(F)c2)c2c(N)ncnc21 [GSK2603358]
14

Fill in reported %Inh for this entry: Cc1ccc(S(=O)(=O)Nc2ccc(Nc3nccc(Nc4cccc5[nH]ncc45)n3)cc2)cc1 [GSK581271]
0

* * *

System: NEK4
Cond: concentration: 1 μM, replicates: in singlicate; n = 1
Measure: %Inh (%)
Your answer is read as %, so omit the unit and give the number.

> print(dat)
                                   compound  result.number
1  Cl.Cl.NCC(NCc1ccc(-c2ccnc3[nH]ccc23)s1)c1ccccc1 (centres unmarked) [GSK1321565]              0
2  COCCOCCOc1cc2ncc3c4ccc(C#N)cc4[nH]c3c2cc1OC              0
3  O=C(Nc1cccc(-c2nn3ccccc3c2-c2ccnc(Nc3cccc(F)c3)n2)c1)c1c(F)ccc(F)c1Cl [GSK357952]              6

State its %Inh for this compound: C[C@@H]1CC[C@@H](C(=O)Nc2ccccc2)CN1c1cc(-c2ccc3c(N)n[nH]c3c2)nc(N)n1 [GSK2286062]
0

// fetch %Inh given entry Clc1ccc(-c2nn3ncccc3c2-c2ccnc(Nc3ccc4c(c3)OCCO4)n2)cc1 [GW829116]
0

Input O=C(NC1CCN(c2ccnc(Nc3ccc(F)cc3)n2)C1)c1cc2ccccc2s1 (centres unmarked) [GSK1379716] , output reported %Inh.
0

Let me know recorded %Inh for Cn1cc(-c2ccc3c(c2)CCN3C(=O)Cc2cccc(F)c2)c2c(N)ncnc21 [GSK2603358] , thanks.
22

Return value of %Inh for input O=C(Nc1cccc(-c2nn3ccccc3c2-c2ccnc(Nc3cccc(C(F)(F)F)c3)n2)c1)c1c(F)cccc1F [GSK292658] , no commentary.
0

* * *

Test system: PRP4
Cond: concentration: 1 μM, replicates: in singlicate; n = 1
# %Inh >= 6% gives Condition met, anything below gives Condition not met

> print(dat)
                                   molecule        label.value
1  c1ccc(Oc2ccc(Nc3ccnc4cc(-c5ccc(CNCCN6CCOCC6)o5)ccc34)cc2)nc1      Condition met
2  Cc1ccc(F)c(C(=O)Nc2cccc(-c3nn4ccccc4c3-c3ccnc(Nc4cccc(F)c4)n3)c2)c1F      Condition met
3  CC(C)c1nc(-c2cccc(NS(=O)(=O)c3c(F)cccc3F)c2F)c(-c2ccnc(Nc3ccc(N4CCOCC4)nc3)n2)s1  Condition not met

Decide: is the reported value of %Inh for COc1cccc(NC(=O)NC2CCN(c3ccnc(Nc4cc(OC)c(OC)c(OC)c4)n3)C2)c1 (stereo not shown) equal to or greater than 6%?
Condition met

Record "CCS(=O)(=O)c1ccc(OC)c(Nc2nccc(-c3c(-c4cccc(NC(=O)c5c(F)cccc5F)c4)nn4ncccc34)n2)c1" ; criterion: %Inh no lower than 6%. Met?
Condition met

Please check the record NCCCC(NC(=O)c1cc(Br)c(-c2ccnc3[nH]ccc23)s1)c1ccccc1.O=C(O)C(F)(F)F.O=C(O)C(F)(F)F (stereo not shown) and state if its %Inh is at or above 6%.
Condition not met
